target: RXRα ligand-binding domain (Homo sapiens, UniProt P19793)
Sequence (P19793 224-462): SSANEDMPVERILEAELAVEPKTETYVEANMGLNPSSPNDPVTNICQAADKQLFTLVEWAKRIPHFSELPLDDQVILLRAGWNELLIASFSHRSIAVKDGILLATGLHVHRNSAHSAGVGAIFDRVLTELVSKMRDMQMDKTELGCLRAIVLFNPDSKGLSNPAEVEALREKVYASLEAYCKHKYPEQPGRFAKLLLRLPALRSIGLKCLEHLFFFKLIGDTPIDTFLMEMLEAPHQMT
metric name: Ki (nM)
Give just the numeric value; nM need not be written.

Problem: Reported Ki for RXRα ligand-binding domain (Homo sapiens, UniProt P19793), given CCCCC/C=C/C=C1/C(=O)C=C[C@@H]1C/C=C\CCCC(=O)O [15d-PGJ2] ?
Solution: 1800

###

biological target: RXRα ligand-binding domain (Homo sapiens); construct: made in house; host or cells: E. coli BL21 (pET vector, Novagen); experiment: competition binding assay with [3H]9-cis-RA and RXRα ligand-binding domain
pIC50: −log10 of the molar value.
metric name: pIC50

Problem: Request the reported pIC50 associated with CC1=C(CC(=O)O)c2cc(F)ccc2/C1=C\c1ccc([S+](C)[O-])cc1 (stereo not shown)
Solution: ~4.00
